Measured values drawn from ChEMBL document CHEMBL1201862 for this set.

Test system: RXF 393
Assay: NCI tumour cell line growth inhibition, 48 h
Activity calls are given as the source filed them. No stated cut-off is given here; in the data, active = GI50 up to about 1.1 µM and inactive = higher.
Measured GI50, listed per entry.

For orientation, consider the following solved cases.
O=C(/C=C/c1ccc(Cl)c(Cl)c1)c1ccccc1Cl | 17.2 µM (inactive)
COP(C)(=O)C1=CCN(C(=O)OCC[Si](C)(C)C)CC1 (centres undefined) | > 100 µM (inactive)

Q: // returns reported GI50 for input Cc1ccc(/N=N/c2ccc(N)cc2C)c(S(N)(=O)=O)c1
Ans: > 100 µM (inactive)

Q: What about this compound? O=[N+]([O-])/C(C(Cl)=C(Cl)Cl)=C(\N1CCCCC1)n1nnc2ccccc21
Ans: 16.3 µM (inactive)

Q: What about this compound? O=C(O)c1ccccc1/C=C1\Cc2ccccc2C1=O
Ans: > 100 µM (inactive)

Q: What about this compound? CSc1nc(Cl)c2c(n1)Sc1ncnn1C2O (centres undefined)
Ans: 2.58 µM (inactive)

Q: What about this compound? CN(C)c1ccc(/C=C2\Oc3cc(O)ccc3C2=O)cc1
Ans: > 100 µM (inactive)

Q: What about this compound? O=C(O)c1cc(-c2ccc3c(O)c(O)ccc3c2)ccc1O
Ans: 17.4 µM (inactive)

Q: What about this compound? CC1(C)CN=C(Nc2ccc(Cl)cc2)S1
Ans: > 100 µM (inactive)

---

Measured GI50, listed per entry.
Tested on: K562
Test: NCI tumour cell line growth inhibition, 48 h
Calls of active or inactive are those of the source. No stated cut-off is given here; in the data, active = GI50 up to about 1.1 µM and inactive = higher.

For orientation, consider the following solved cases.
CCn1c(SCC(=O)NNC(=S)Nc2ccc(C)cc2)nc2ccccc2c1=O | 51.9 µM (inactive)
CC(C)C[C@@H](NC(=O)[C@@H](Cc1cccc2ccccc12)NC(=O)N1CCOCC1)B(O)O | 57.9 µM (inactive)
Cn1ccnc1CCc1ccc(Cl)c(Cl)c1 | 54.7 µM (inactive)
Nc1nc(Cl)c(N)c(NCC2(CO)CC(OCc3ccccc3)C2)n1 (stereo not given) | 74.6 µM (inactive)

Q: // returns reported GI50 for input CC(O[Si](c1ccccc1)(c1ccccc1)C(C)(C)C)[C@H](NC(=O)OC(C)(C)C)C(=O)O[Si](c1ccccc1)(c1ccccc1)C(C)(C)C (stereo not given in full)
Ans: 13.2 µM (inactive)

---

Measured GI50, listed per entry.
System: HT-29
Assay: NCI tumour cell line growth inhibition, 48 h
Calls of active or inactive are those of the source. Cut-off read from the data, not from the text of the source: active = GI50 up to about 1.1 µM and inactive = higher.

For orientation, consider the following solved cases.
CO/C=C(/C(=O)OC)c1ccccc1[C@H]1C[C@@H]1c1ccccc1 | 18.6 µM (inactive)
CCCCCCCCC/C=C1/CC(CO)(COC(=O)C2CCCCC2)OC1=O (configuration not stated) | > 100 µM (inactive)
CN(C)Cc1cc(C(=O)/C=C/c2ccc(O)cc2)cc(CN(C)C)c1O | 79.3 µM (inactive)
COc1ccc(NC(=S)c2ccc(CN3CCCCC3)s2)cc1 | 5.46 µM (inactive)
COc1ccc(NC(=O)CSc2nnc(-c3ccc(/N=C\c4ccc(Cl)cc4)cc3)o2)cc1 | 42.8 µM (inactive)

Q: // returns reported GI50 for input O=c1oc2ccccc2c2c1Sc1ccccc1N2
Ans: > 100 µM (inactive)

Q: What about this compound? Nc1ccc2c(c1)C(=O)N(O)C2=O
Ans: > 100 µM (inactive)

Q: What about this compound? O=C(/C=C/c1ccccc1)c1cc(CN2CCOCC2)c(O)c(CN2CCOCC2)c1
Ans: 17.4 µM (inactive)

Q: What about this compound? O=C(O)Cc1ccc2c(c1)/C(=C1/Nc3ccccc3C1=O)C(=O)N2
Ans: 38.8 µM (inactive)

Q: What about this compound? CN(Cc1cc(Br)cc(Br)c1O)Cc1c(O)ccc2ccccc12
Ans: 14.5 µM (inactive)
